Study system: natural Fel d1 (cat (Felis domesticus)) (UniProt P30438)
Test description: SPR, mAb captured, nFel d1 injected, 25 C
Assay readout: t1/2 (min)
Answer in min, number only, no unit symbol.

Solved cases below.
[[record]]
binder = "H4H2606B (antibody, human IgG4, V domains shown) VH: EVQLVESGGGLVKPGGSLRLSCAASGFTFSDYYMNWIRQAPGKGLEWVSYISSSGNSIYYADSVKGRFTISRDNAKNSLFLQMSSLRAEDTAVYYCARDGRYNDRRRGYYWGQGTLVTVSS VL: EIVMTQSPDFQSVTPKEKVTITCRASQSIGSSLHWYQQKPDQSPKLLIKYASQSFSGVPSRFSGSGSGTDFTLTINSLEAEDAATYYCLQSSSLRTFGQGTKVEIKR"
assay_readout = "t1/2"
readout_number = 16

[[record]]
binder = "H1M1230N (antibody, V domains shown) VH: EVQLVESGGGLVQPGGSLRLSCTASGFIFSNFWMTWVRQAPGKGLEWVANIKQDGSETYCVDSVKGRFTISRDHAKNSLFLQMNSLRAEDTAVYYCARGAGTIYYYGMDVWGQGTTVIVSS VL: DIQMTQSPSSVSASVGDRLTITCRASQDISSWLTWYQQKPGKAPNLLIYAASGLQSGVPSRFSGSGSGTDFTLTISNLQPEDFATYYCQQANSFPLTFGQGTRLEIK"
assay_readout = "t1/2"
readout_number = 13


Please report the recorded t1/2 for H4H2608B (antibody, human IgG4, V domains shown) VH: EVQLVESGGGLVKPGGSLRLSCAASGFTFSDYYMNWIRQAPGKGLEWISYISSSDDTTYYADSVKGRFTISRDNAKNSLYLQMNSLRAEDTAVYYCARDGKYNTVAGDHWGQGTLVTVSS VL: EIVMTQSPDFQSVAPKEKVTITCRASQNIGSSLHWYQQKPDQSPKLLIKYASQSFSGVPSRFSGSGSGTDFTLTINSLEAEDAATYYCLQSYTLRTFGQGTKVEIKR .
11

Provenance of the data: patent US20200255503A1
